# Assay text: Viability qHTS for spleen associated tyrosine kinase inhibitor (SYKi) drug resistant MV4-11 cells (AID 1963824); also: nearly all actives have a fitted effect of over 35% in size; also: potency is read from the fitted curve at half-maximal effect
# Condition parameters: SYKi-resistant MV4-11 viability, CellTiter-Glo, 72 h; series mostly up to 45 µM
Records with an inconclusive call do not appear. Active and inactive are the calls of the source. Calls follow the shape of the dose curve; as a rule, active = well fitted cell-killing curve with a large enough effect; inconclusive = small, poorly fitted or top-dose-only effect, or effect the other way; inactive = no such curve, though single readings can be large or run the other way.
Quantity name: Potency

Example entries begin here.
Compound	Potency
Cc1ncc(NC(=O)c2cccc(C(F)(F)F)c2)cc1-c1cnc(OC2CCOCC2)c(N2CCOCC2)c1	5.9 µM (active)
COc1cc(O)c2c(c1)C1=CC(O)C(O)CC1(C)OC2=O (stereo not given)	inactive
CC1(C)O[C@H]2CC(=O)OC[C@@]23C1=C(O)C(=O)[C@]1(C)C3CC[C@@]2(C)[C@H](c3ccoc3)OC(=O)[C@H]3O[C@]321 (stereo not given in full)	inactive
COc1ccc(-c2ccc(-c3cn(C(=O)N4CCCCC4c4ccccc4)nn3)cc2)cc1 (stereo not given)	0.517 µM (active)

Look up Potency for the entries below, preserving their order.
1. O=C(O)c1ccnc(-c2cc(C(=O)NCCc3ccccc3)ccn2)c1
2. O=C(Nc1ccc(CN2CCOCC2)cc1)c1ccc(-c2cccc(Cl)c2)o1

Result string:
1: inactive; 2: 9.2 µM (active)

====

# Assay text: Viability qHTS for spleen associated tyrosine kinase inhibitor (SYKi) naive MV4-11 cells (AID 1963823); also: nearly all actives have a fitted effect of over 40% in size
# Condition parameters: MV4-11 AML viability, CellTiter-Glo luminescence, 72 h; series mostly up to 45 µM
Inconclusive results are not listed. Activity calls are given as the source filed them. Calls follow the shape of the dose curve; as a rule, active = well fitted cell-killing curve with a large enough effect; inconclusive = small, poorly fitted or top-dose-only effect, or effect the other way; inactive = no such curve, though single readings can be large or run the other way.
Field 'call' accepts yes for active, no for inactive

For orientation, consider the following solved cases.
Compound	Answer label
Oc1cccc2[nH]ccc12	yes
CC12CCC(C(OC3OC(COC4OCC(O)(CO)C4O)C(O)C(O)C3O)C1)C(C)(C)O2 (stereo not given)	no
COc1cc(OC)nc(O[C@H](C(=O)O)C(OC)(c2ccccc2)c2ccccc2)n1	no
CNC(=O)c1ccc2c(c1)CCO[C@H]2CCN1CCN(c2ccc(C(N)=O)cc2)CC1	no
Cc1c(-c2ccc(-c3ccccc3F)cc2)nc2ccc(F)cc2c1C(=O)O	yes

Query string: Called result for CCN1CCN(Cc2ccc(NC(=O)c3ccc(C)c(Oc4ccnc5[nH]ccc45)c3)cc2C(F)(F)F)CC1
Result string: yes

Query string: Called result for COc1ccc(NS(=O)(=O)c2ccc(N)cc2)nn1
Result string: no

Query string: Called result for CC(C)C(C(=O)N(C)C(C)C(N)=O)N(C)C(=O)C1CCCN1C(=O)/C=C/C=C/C(O)C(C)O (stereo not given)
Result string: no

Query string: Called result for CC(=O)OC1C(O)CC(O[C@@H]2O[C@H](CO)[C@@H](O)[C@H](O)[C@H]2O)C2CCC3C(=O)OC(c4ccoc4)CC3(C)C21 (stereo not given in full)
Result string: no

Query string: Called result for Cc1occc1C(=O)n1ccnc1
Result string: no

====

# Assay text: Quantitative highthroughput screen to assess conditional lethalithy of SEM cells grown in RPMI1640 with unreated serum (RPMI+s) (AID 1963883); also: nearly all actives have a fitted effect of over 35% in size
# Condition parameters: SEM B-ALL cells, CellTiter-Glo viability, 48 h; series mostly up to 45.8 µM
Records with an inconclusive call do not appear. Active and inactive are the calls of the source. Calls come from the whole dose curve; as a rule, active = well fitted cell-killing curve with a large enough effect; inconclusive = small, poorly fitted or top-dose-only effect, or effect the other way; inactive = no such curve, though single readings can be large or run the other way.
Field 'call' accepts active, inactive

Compound	Answer label
Cn1cc(-c2ccc(F)c(C(F)(F)F)c2)nc1C1CCN(c2ncnc3[nH]ncc23)CC1	inactive

Query string: Called result for COc1cc(O)c2c(c1)C(=O)c1cc(C)cc(O)c1C2=O
Result string: active

Query string: Called result for CC(C)Oc1ccc2c(=O)c(-c3ccccc3)coc2c1
Result string: inactive

Query string: Called result for COc1nc(-c2ccc3c(c2)OCO3)n(-c2ccc(NC(=O)CSc3ccccc3)cc2)n1
Result string: inactive

Query string: Called result for N#CC(=C(O)c1ccc(Cl)cc1Cl)c1nc2cc(Cl)ccc2c(=O)[nH]1
Result string: inactive

Taken from PubChem BioAssay (NCATS).
